measurement-protocol: qHTS screen for small molecules that inhibit ELG1-dependent DNA repair in human embryonic kidney (HEK293T) cells expressing luciferase-tagged ELG1; also: nearly all actives have a fitted effect of over 55% in size; also: potency is read from the fitted curve at half-maximal effect
test-parameters: HEK293T ELG1-luciferase reporter, luminescence, 16 h, DNA damage induced by 5-fluorouridine; series mostly up to 46.1 µM
The whole screen tested about 330,000 compounds, of which about 7,700 (2.3%) were called active. About 26% were inconclusive and are not listed. The entries come from a sample that favours actives as a whole.
measured-property: Potency

As a guide, the following entries are already answered.
# compound, Potency
records = [
    ("CCS(=O)(=O)Nc1ccc(C2=NN(S(=O)(=O)c3ccc(F)cc3)C(c3ccco3)C2)cc1 (stereo not given)", "20.6 µM (active)"),
    ("Cc1ccc(NC(=O)C(C)OC(=O)Cc2c[nH]c3ccccc23)cc1S(=O)(=O)N1CCOCC1 (stereo not given)", "18.3 µM (active)"),
    ("Cc1[nH]c2ccccc2c1C(=O)C(C)Sc1nnc(C2CC2)o1 (stereo not given)", "inactive"),
    ("Cc1ccc(C2=NN(C(=O)COc3ncnc4ccccc34)C(c3ccco3)C2)cc1 (stereo not given)", "inactive"),
    ("CCn1nc(C(=O)Nc2ccc(N3CCOCC3)cc2)c2ccccc2c1=O", "inactive"),
    ("CCCCn1nc(C(=O)OCC(=O)Nc2sccc2C(N)=O)c2ccccc2c1=O", "inactive"),
    ("O=c1[nH]cccc1-c1nc2ccccc2n1Cc1ccc(Cl)cc1", "inactive"),
    ("CC(OC(=O)CCCc1c[nH]c2ccccc12)C(=O)Nc1ccc(S(N)(=O)=O)cc1 (stereo not given)", "inactive"),
]

Give me measured Potency, please, for this compound: COc1ccc(C(=O)OCC(=O)c2cc(C)n(CC3CCCO3)c2C)cc1[N+](=O)[O-] (stereo not given) inactive

Could you please provide reported Potency for CCC1CCCCN1C(=O)CSc1nc2c(c(=O)n1C)SC(C)C2 (stereo not given) ? Thanks! inactive
